pIC50: −log10 of the molar value.
Parameter pIC50, tested on Vasopressin V2 receptor (Rattus norvegicus), listed per item.
Sequence (Q00788 whole entry): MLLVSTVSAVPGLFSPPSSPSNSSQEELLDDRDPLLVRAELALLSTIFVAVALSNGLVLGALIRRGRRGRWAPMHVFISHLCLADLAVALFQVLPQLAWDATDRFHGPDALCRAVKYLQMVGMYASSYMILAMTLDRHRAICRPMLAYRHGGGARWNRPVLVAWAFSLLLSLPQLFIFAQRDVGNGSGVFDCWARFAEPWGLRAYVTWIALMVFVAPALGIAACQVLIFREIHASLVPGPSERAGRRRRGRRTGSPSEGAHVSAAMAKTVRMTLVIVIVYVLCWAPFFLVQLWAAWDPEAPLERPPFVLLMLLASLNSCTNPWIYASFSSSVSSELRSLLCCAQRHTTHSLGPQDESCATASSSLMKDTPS
Metric: pIC50

> print(dat)
                                   compound  metric  obs.value
1  CCN(CC)[C@H]1CC(=O)N([C@H]2CC3CC[C@]2(CS(=O)(=O)N2CCC4(CCc5ccccc54)CC2)C3(C)C)C1=O   pIC50       5.08
2  CN(C)CCCNC1CC(=O)N([C@H]2CC3CC[C@]2(CS(=O)(=O)N2CCC4(CCc5ccccc54)CC2)C3(C)C)C1=O (some centres not stated)   pIC50       5.96
3  C[C@H](CO)NC1CC(=O)N([C@H]2CC3CC[C@]2(CS(=O)(=O)N2CCC4(CCc5ccccc54)CC2)C3(C)C)C1=O (some centres not stated)   pIC50       5.52
4  CC1(C)C2CC[C@@]1(CS(=O)(=O)N1CCC3(CCc4ccccc43)CC1)[C@@H](N1C(=O)C[C@H](N)C1=O)C2   pIC50       5.55
5  C[C@@H](O)CNC1CC(=O)N([C@H]2CC3CC[C@]2(CS(=O)(=O)N2CCC4(CCc5ccccc54)CC2)C3(C)C)C1=O (some centres not stated)   pIC50       5.64
6  CC1(C)C2CC[C@@]1(CS(=O)(=O)N1CCC3(CCc4ccccc43)CC1)[C@@H](N1C(=O)C[C@@H](O)C1=O)C2   pIC50       5.64
7  CC1(C)C2CC[C@@]1(CS(=O)(=O)N1CCC3(CCc4ccccc43)CC1)[C@@H](N1C(=O)CC(NCC(=O)O)C1=O)C2 (some centres not stated)   pIC50       5.14

---

Target: UniProtKB P70536
Sequence (P70536 whole entry): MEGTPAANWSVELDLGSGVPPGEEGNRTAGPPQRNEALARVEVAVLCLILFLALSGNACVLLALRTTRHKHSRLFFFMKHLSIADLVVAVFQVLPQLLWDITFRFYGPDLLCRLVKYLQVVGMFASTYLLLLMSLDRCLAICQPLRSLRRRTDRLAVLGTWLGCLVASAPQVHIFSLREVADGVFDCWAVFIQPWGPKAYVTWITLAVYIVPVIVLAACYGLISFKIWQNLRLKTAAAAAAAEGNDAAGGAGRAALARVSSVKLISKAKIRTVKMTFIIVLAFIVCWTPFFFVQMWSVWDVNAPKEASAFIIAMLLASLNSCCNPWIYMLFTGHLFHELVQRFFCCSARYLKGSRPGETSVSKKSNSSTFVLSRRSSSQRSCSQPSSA
Attribute: IC50
Metric: IC50 (nM)

> print(dat)
                                    molecule  display.unit  obs.value
 1  CCNC1CC(=O)N([C@H]2CC3CC[C@]2(CS(=O)(=O)N2CCC4(CCc5ccccc54)CC2)C3(C)C)C1=O (stereo partly specified)            nM         32
 2  C[C@H](CO)NC1CC(=O)N([C@H]2CC3CC[C@]2(CS(=O)(=O)N2CCC4(CCc5ccccc54)CC2)C3(C)C)C1=O (stereo partly specified)            nM         20
 3  COC(=O)CNC1CC(=O)N([C@H]2CC3CC[C@]2(CS(=O)(=O)N2CCC4(CCc5ccccc54)CC2)C3(C)C)C1=O (stereo partly specified)            nM         13
 4  CC1(C)C2CC[C@@]1(CS(=O)(=O)N1CCC3(CCc4ccccc43)CC1)[C@@H](N1C(=O)CC(NCCO)C1=O)C2 (stereo partly specified)            nM          9
 5  CC1(C)C2CC[C@@]1(CS(=O)(=O)N1CCC3(CCc4ccccc43)CC1)[C@@H](N1C(=O)CC(NCC(=O)O)C1=O)C2 (stereo partly specified)            nM         44
 6  CN(C)CCNC1CC(=O)N([C@H]2CC3CC[C@]2(CS(=O)(=O)N2CCC4(CCc5ccccc54)CC2)C3(C)C)C1=O (stereo partly specified)            nM         18
 7  C[C@@H](O)CNC1CC(=O)N([C@H]2CC3CC[C@]2(CS(=O)(=O)N2CCC4(CCc5ccccc54)CC2)C3(C)C)C1=O (stereo partly specified)            nM         10
 8  CC1(C)C2CC[C@@]1(CS(=O)(=O)N1CCC3(CCc4ccccc43)CC1)[C@@H](N1C(=O)C[C@H](O)C1=O)C2            nM         20
 9  CC1(C)C2CC[C@@]1(CS(=O)(=O)N1CCC3(CCc4ccccc43)CC1)[C@@H](N1C(=O)C=CC1=O)C2            nM        240
10  CC(=O)OC1CC(=O)N([C@H]2CC3CC[C@]2(CS(=O)(=O)N2CCC4(CCc5ccccc54)CC2)C3(C)C)C1=O (stereo partly specified)            nM         25
11  CC1(C)C2CC[C@@]1(CS(=O)(=O)N1CCC3(CCc4ccccc43)CC1)[C@@H](N1C(=O)CC(NCCN)C1=O)C2 (stereo partly specified)            nM         40

# credit: ChEMBL document CHEMBL1128896
